- assayed target: Hypoxia-inducible factor 1-alpha (Homo sapiens)
- procedure text: ATG_HIF1a_CIS: Attagene CIS-FACTORIAL HepG2 Assay for human Hypoxia Inducible Factor 1 (HIF1A) (AID 2282951)
- condition: HepG2 Attagene cis-factorial HIF1a reporter transcription; actives raise or lower the signal
Active and inactive are the calls of the source. The calls were made as follows: active = hit-call score of the fitted dose curve at least 0.9, where 1 is the maximum; inactive = score below 0.9.
Can you answer with just one of these options? active, inactive

Q: I'd appreciate the recorded outcome for N#C[C@@H]1CC(F)(F)CN1C(=O)CNC1CC2CCC(C1)N2c1ncccn1 (stereo not given in full) from this test.
Result: inactive

Q: I'd appreciate the recorded outcome for NCC(F)(F)C(F)(F)C(F)(F)C(F)(F)C(F)(F)C(F)(F)C(F)(F)F from this test.
Result: inactive

Q: I'd appreciate the recorded outcome for CCOC(=O)CC(O)(CC(=O)OCC)C(=O)OCC from this test.
Result: inactive

Q: I'd appreciate the recorded outcome for ClC1=C(Cl)C(Cl)(Cl)C(Cl)=C1Cl from this test.
Result: inactive

Q: I'd appreciate the recorded outcome for CC#C[C@]1(O)CC[C@H]2[C@@H]3CCC4=CC(=O)CCC4=C3[C@@H](c3ccc(N(C)C)cc3)C[C@@]21C from this test.
Result: active

Q: I'd appreciate the recorded outcome for Cc1ccc(S(=O)(=O)O)c(C)c1 from this test.
Result: inactive

Q: I'd appreciate the recorded outcome for CCN(CC)CCNc1ccc(CNC=O)c2sc3ccc(OC)cc3c(=O)c12 from this test.
Result: active

Q: I'd appreciate the recorded outcome for CC[C@H](C)[C@@H](C(=O)O)n1sc2ccccc2c1=O from this test.
Result: inactive

Q: I'd appreciate the recorded outcome for CCc1ccc(CCOc2ccc(CC3SC(=O)NC3=O)cc2)nc1 (stereo not given) from this test.
Result: inactive
